Target: Luciferin 4-monooxygenase (Photinus pyralis)
Assay: inhibition of purified Photinus pyralis luciferase – biochemical, luminescence, purified enzyme, 2006 set, primary screen (AID 1141);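 note: cell-free assay with purified firefly luciferase at 100 ng per well in PBS; test concentration not given here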
Conditions: purified firefly luciferase, SteadyGlo luminescence, 30 min; higher = more signal, called active from +8 up or from −8 down
METRIC: z-score

molecule="O=C1OCCC/C=C\\[C@H]2OC34C=CCN(c5ccc6ccccc6c5)C(=O)[C@H]3N(CCO)C(=O)[C@@H]4C12 (some centres undefined)" metric=z-score reported_result=0.235
molecule=C=CC[C@]1(C(=O)N2CCOCC2)COC(c2ccc(OCCCO)cc2)=N1 metric=z-score reported_result=0.566
molecule=CCCC[C@@H](O)C1=C(COc2ccccc2)C[C@H]2C(=O)N(Cc3ccccc3)C(=O)[C@H]2[C@H]1CO metric=z-score reported_result=-1.25
molecule=CC(C)[Si](C#CCCCC#N)(O[C@H](c1ccccc1)c1cn(Cc2ccccc2)nn1)C(C)C metric=z-score reported_result=-0.254
molecule="CC(C)C(O)C1C=CC2C(=O)N(c3ccccc3)C(=O)C2N1Nc1ccccc1 (centres undefined)" metric=z-score reported_result=0.172
molecule=O=C1N(CCS(=O)(=O)c2ccccc2)c2ccccc2[C@H]2OC(c3ccc(OCCCO)cc3)=N[C@@]12Cc1ccccc1 metric=z-score reported_result=-8.53
molecule=COc1ccc(C(=O)Nc2ccc(CN3C(=O)[C@]4(O[C@H](CC(=O)N5Cc6ccccc6C[C@H]5CO)[C@@H]([Si](C)(C)c5ccc(OC)cc5)[C@@H]4C)c4ccccc43)cc2)cc1 metric=z-score reported_result=-0.379
molecule=C=C[C@@H](OC)[C@H](OC(=O)Nc1ccc(OC)cc1)c1ccc(O)c(F)c1 metric=z-score reported_result=-3.89
molecule="CC(C)c1ccc(NN2C(C(O)c3ccc(F)cc3)C=CC3C(=O)N(c4ccccc4)C(=O)C32)cc1 (centres undefined)" metric=z-score reported_result=-2.01
molecule=CCOC(=O)C[C@H]1[C@H](OC(=O)c2ccc(C(=O)c3ccccc3)cc2)[C@@H](NC(=O)C2CCCCC2)c2cc(OCCCO)ccc2N1C(=O)c1ccc2ccccc2n1 metric=z-score reported_result=0.425
molecule="O=C1C2C=CC(C(O)C3CC=CCC3)N(Nc3ccccc3)C2C(=O)N1c1ccccc1 (centres undefined)" metric=z-score reported_result=-0.313
molecule=CCOC(=O)C[C@H]1[C@H](OC(=O)c2ccccc2-c2ccccc2)[C@@H](NC(=O)c2ccc3ccccc3n2)c2cc(OCCCO)ccc2N1C(=O)Cc1ccc(OC)cc1 metric=z-score reported_result=0.43
molecule=C=CCNC(=O)[C@@H]1[C@H]2C(=O)O[C@H](c3ccccc3)[C@H](c3ccccc3)N2[C@H](c2ccccc2OCCO)[C@@]12C(=O)N(C(=O)OCCOC)c1ccc(C#CC3(O)CCCCCC3)cc12 metric=z-score reported_result=0.558
molecule=[N-]=[N+]=Nc1ccccc1C[C@@]1(C(N)=O)N=C(c2ccc(OCCCO)cc2)O[C@@H]1c1ccccc1N=[N+]=[N-] metric=z-score reported_result=-4.2
molecule="CCCCCCCCCCC(O)C1C=CC2C(=O)N(c3ccccc3)C(=O)C2N1Nc1ccc(C#N)cc1 (centres undefined)" metric=z-score reported_result=0.675
molecule="CC(C)(C)OC(=O)CC[C@@]1(C(=O)NCC(O)CO)N=C(c2ccc(OCCCO)cc2)O[C@@H]1c1ccccc1CN=[N+]=[N-] (some centres undefined)" metric=z-score reported_result=-1.78
molecule="COc1cc(NN2C(C(O)c3cc(OC)c(OC)c(OC)c3)C=CC3C(=O)N(C)C(=O)C32)cc(OC)c1OC (centres undefined)" metric=z-score reported_result=0.229
molecule=CCCC#C[Si](O[C@H](CC)c1cn([C@H](C)c2ccccc2)nn1)(C(C)C)C(C)C metric=z-score reported_result=-1.08
molecule=CCOC(=O)C[C@H]1[C@H](OC(=O)c2ccc(-c3ccccc3)cc2)[C@@H](NC(=O)CC(C)C)c2cc(OCCCO)ccc2N1C(=O)c1ccc2ccccc2n1 metric=z-score reported_result=0.854
molecule=COCCOC(=O)N1C(=O)[C@@]2(c3ccccc31)[C@H](C(=O)NC[C@H](O)c1ccccc1)[C@H]1C(=O)O[C@H](c3ccccc3)[C@H](c3ccccc3)N1[C@@H]2c1ccc(O)cc1 metric=z-score reported_result=0.883
molecule=O=C1N(Cc2ccccc2)c2ccccc2C[C@]12N=C(c1ccc(OCCCO)cc1)O[C@@H]2c1ccccc1 metric=z-score reported_result=-1.74
molecule=O=C(NCCN1CCOCC1)[C@@H]1c2ccccc2C(=O)N(C2Cc3ccccc3C2)[C@H]1c1ccc(CO)cc1 metric=z-score reported_result=-1.16
molecule="C[C@@H]1NC(=O)[C@@H](Cc2ccccc2)NC(=O)[C@@]23C(=O)N[C@@H](Cc4ccccc4)C2[C@H](C)[C@@]2(C)O[C@H]2C3/C=C/C/C=C\\CNC1=O (some centres undefined)" metric=z-score reported_result=-1.03
molecule=CCOC(=O)C[C@H]1[C@H](OC(=O)c2ccc(C(=O)c3ccccc3)cc2)[C@@H](NC(=O)c2ccc3ccccc3n2)c2cc(OCCCO)ccc2N1C(=O)Cc1ccc(OC)cc1 metric=z-score reported_result=0.541
molecule=Cc1ccc(S[C@]2(C(=O)NCc3ccccc3)CC(=O)N(C3CCCCC3)[C@@H]2c2ccc(CO)cc2I)cc1 metric=z-score reported_result=-0.421
molecule=CCOC(=O)C1=CC[C@@H](c2ccccc2)N(S(=O)(=O)c2ccc(C)cc2)[C@H]1c1ccccc1 metric=z-score reported_result=1.16
molecule=CO[C@H]1O[C@H](CO)[C@@H](OC(=O)Nc2ccc3c(c2)OCO3)[C@H](OC(=O)Nc2ccc3c(c2)OCO3)[C@@H]1OC(=O)Nc1ccc2c(c1)OCO2 metric=z-score reported_result=-9.67
molecule=[N-]=[N+]=Nc1ccccc1C[C@]1(C(=O)O)COC(c2ccc(OCCCO)cc2)=N1 metric=z-score reported_result=-13.9
molecule=CC(C)NC(=O)[C@@]1(C)c2ccccc2C(=O)N(Cc2ccc(OC(F)(F)F)cc2)[C@H]1c1ccc(CO)cc1 metric=z-score reported_result=-0.183

---

Test: compounds binding Alexa647 anti-His antibody – biochemical, small-molecule microarray, 635 nm fluorescence, artefact control for SMM control protein annotation, primary screen (AID 1128);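 note: score merges feature fluorescence with signal-to-noise for each printed compound spot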
Settings: higher = more signal
METRIC: composite z-score

compound=CC#CCO[Si](C#Cc1ccccc1)(C(C)C)C(C)C reported_result=-1.71
compound="CS(=O)(=O)CCOC(=O)C1=CC(c2ccc(CO)cc2)=CC(C2CC2)N(Cc2sc3ccccc3c2Cl)C=C1C(=O)OCCS(C)(=O)=O (stereo not given)" reported_result=1.27
compound=CCCC=C(CCC)[C@@H](NC(=O)C(C)(C)C)c1ccc(C(=O)OC)cc1 reported_result=0.933
compound=CCOC(=O)C1=CC[C@@H](c2ccccc2F)N(S(=O)(=O)c2ccc(C)cc2)[C@H]1c1ccccc1 reported_result=0.477
compound=CC(C)N1C(=O)C[C@@](C(=O)NC2CC2)(c2ccc([N+](=O)[O-])cc2)[C@H]1c1ccc(CO)cc1 reported_result=1.7

---

Target: Carbonic anhydrase 2 (Homo sapiens) (UniProt P00918)
Test: compounds binding carbonic anhydrase 2 – biochemical, small-molecule microarray, Alexa647-labelled CAII, profiling panel (AID 1122)
Conditions: CAII-A647 binding fluorescence, higher = more signal
Entry flag: T if composite z-score reaches 0.2; F if it does not.

compound=COCCOC(=O)N1C(=O)[C@@]2(c3cc(C#CC4=CCCCC4)ccc31)[C@H](c1ccccc1OCCO)N1[C@H](c3ccccc3)[C@H](c3ccccc3)OC(=O)[C@H]1[C@@H]2C(=O)N1CCN(c2ncccn2)CC1 answer_label=T
compound="CCCCCCCCCC(O)C1C=CC2C(=O)N(c3ccccc3)C(=O)C2N1Nc1cc(OC)c(OC)c(OC)c1 (stereo not drawn)" answer_label=T
compound="O=C1OCCC=C[C@H]2OC34C=CCN(c5ccc6ccccc6c5)C(=O)[C@H]3N(CCCO)C(=O)[C@@H]4C12 (stereo partly drawn)" answer_label=F
compound=COC(=O)[C@@]1(Cc2ccccc2)[C@H]2c3cc(C(=O)N(C)C)n(Cc4ccc(C)o4)c3C[C@H]2CN1C(=O)c1ccccc1 answer_label=T
compound=CCOC(=O)C[C@H]1[C@H](OC(=O)c2cc3ccccc3oc2=O)[C@@H](NC(=O)CC(C)C)c2cc(OCCCO)ccc2N1C(=O)c1ccc2ccccc2n1 answer_label=T
compound=O[C@@H](Cc1ccccc1)[C@@H](/C=C/C1CC1)N(CC#Cc1ccccc1)Cc1ccccc1Br answer_label=F
compound=COC(=O)C(CC#Cc1ccc2c(c1)[C@]1(C(=O)N2)[C@H](c2ccc(O)cc2)N2[C@H](c3ccccc3)[C@H](c3ccccc3)OC(=O)[C@H]2[C@@H]1C(=O)NC[C@H](O)c1ccccc1)C(=O)OC answer_label=T
compound=CCOC(=O)C[C@H]1[C@H](OC(=O)c2cc3ccccc3oc2=O)[C@@H](NC(=O)c2ccc3ccccc3n2)c2cc(OCCCO)ccc2N1C(=O)Cc1ccc(OC)cc1 answer_label=T

Where these numbers come from: PubChem BioAssay
